# Tested system: T1, 4H118-bN
# T1 chain: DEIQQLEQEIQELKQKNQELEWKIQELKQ
# Test: two-hybrid library CCNG1;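 further: natural log of median RNA to DNA barcode read ratio; higher means stronger binding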
Property label: interaction score
Provide a numeric answer; units are not to be included.

Example cases with answers are listed next.
>>> print(df.to_string())
                                     binder  observed_measurement
0  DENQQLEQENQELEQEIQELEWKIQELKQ [4H1158-bN]                 0.579
1  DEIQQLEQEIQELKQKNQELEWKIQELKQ [4H118-bN]                 0.139
2  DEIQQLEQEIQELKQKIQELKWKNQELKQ [4H112-bN]                -0.511

Kindly consider the entry below.
## Task In one line, give reported interaction score of the entry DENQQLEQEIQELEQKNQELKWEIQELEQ [4H1081-bN] .
## Result -0.492
